test: Displacement of [125l]-lodomelatonin from hamster brain cell QR2 incubated for 60 mins by scintillation counting analysis
measured-attribute: pKi
Expect pKi as a plain number equal to -log10 of the molar concentration.

CNc1nnc(CCc2c[nH]c3ccc(OC)cc23)o1: 6.48

Task: Reported pKi for COc1ccc2[nH]cc(CCNC(C)=O)c2c1 [MELATONIN] : what is it?
Result: 7.11

###

biological target: Melatonin receptor type 1B (Homo sapiens, UniProt P49286)
Sequence (P49286 whole entry): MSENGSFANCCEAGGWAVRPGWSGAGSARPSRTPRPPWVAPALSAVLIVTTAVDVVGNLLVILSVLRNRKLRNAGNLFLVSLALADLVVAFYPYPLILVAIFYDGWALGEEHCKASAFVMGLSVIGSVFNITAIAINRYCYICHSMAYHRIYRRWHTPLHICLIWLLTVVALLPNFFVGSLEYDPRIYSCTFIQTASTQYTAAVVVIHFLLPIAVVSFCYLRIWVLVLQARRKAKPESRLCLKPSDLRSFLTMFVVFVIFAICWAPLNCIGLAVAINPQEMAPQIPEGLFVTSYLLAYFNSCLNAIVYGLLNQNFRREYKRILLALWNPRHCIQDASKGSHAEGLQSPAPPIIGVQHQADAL
measured-attribute: pKi
Expect pKi as a plain number equal to -log10 of the molar concentration.

Task: What does the record list as pKi for COc1cc2cccc(/C=C/c3n[nH]c(=O)o3)c2cc1OC ?
Result: 7.16
